Source listed as BigSolDB 2.1.

CONDITION_SUMMARY: in water, 298.15 K
PROPERTY: solubility (mole fraction)

>>> print(df.to_string())
                           structure_smiles                    property  value_observed
0  C#C[C@]1(O)C=C[C@H]2[C@@H]3CCC4=CC(=O)CC[C@@H]4[C@H]3CC[C@@]21CC  solubility (mole fraction)        1.06e-05

----------
CONDITION_SUMMARY: in methanol, 308.15 K
PROPERTY: solubility (mole fraction)

>>> print(df.to_string())
                           structure_smiles  value_observed
0  C#C[C@]1(O)C=C[C@H]2[C@@H]3CCC4=CC(=O)CC[C@@H]4[C@H]3CC[C@@]21CC          0.0108
